# Test system: 188146-221-R-J1-PDC complex spheroid viability;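 also: spheroids exposed to compounds for seven days; 100% = DMSO vehicle control viability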
# assayOverview: Anticancer human tumor 188146-221-R-J1-PDC patient-derived colon adenocarcinoma cell line growth inhibition [POLQ]
# particulars: second compound 0.0316 µM; first compound 0.0316 µM; hits give low values
measuredProperty: viability, T/C (%)
Answer in %, number only, no unit symbol.

Note to self: viability, T/C recorded for C=CCn1c(=O)c2cnc(Nc3ccc(N4CCN(C)CC4)cc3)nc2n1-c1cccc(C(C)(C)O)n1 + COC1C(OC(N)=O)C(O)C(Oc2ccc3c(O)c(NC(=O)c4ccc(O)c(CC=C(C)C)c4)c(=O)oc3c2C)OC1(C)C was 103

Note to self: viability, T/C recorded for COc1cccc(OCCCN)c1-c1cc(Nc2cnc(C#N)cn2)n[nH]1 + Nc1ccc(C#CCN(C(=O)Cc2ncc(C(F)(F)F)cc2C(F)(F)F)c2ccc(F)cc2)nn1 was 77.4

Note to self: viability, T/C recorded for CC1COCCN1c1cc(C2(S(C)(=N)=O)CC2)nc(-c2ccnc3[nH]ccc23)n1 (stereo not drawn) + Cc1cccc(N(C)C(=O)C2C(O)CCN2c2nc(C)cc(C(F)(F)F)c2C#N)c1 was 108
